Source listed as paper PMC7563222.

system: mAb SH2; test: Competitive ELISA: inhibition of mAb SH2 binding to immobilized (DimLe^x)16-BSA conjugate 1; design: species or system mouse
Parameter Measured: Inhibition of SH2 binding to (DimLe^x)16-BSA by soluble oligosaccharide (in words)

Compound	Test Target	Value
COC1OC(CO)C(OC2OC(CO)C(O)C(O)C2O)C(OC2OC(C)C(O)C(O)C2O)C1NC(C)=O (stereo not drawn)	mAb SH2	no inhibition
CO[C@@H]1O[C@H](CO)[C@@H](O[C@@H]2O[C@H](CO)[C@H](O)[C@H](O)[C@H]2O)[C@H](O[C@@H]2O[C@@H](C)[C@@H](O)[C@@H](O)[C@@H]2O)[C@H]1O	mAb SH2	no inhibition
